Tested on: E. coli GC 2203
TEST METHOD NOTES: MIC, broth microdilution
STATED CONDITIONS: Escherichia coli, GC2203, read-out: MINIMAL INHIBITORY CONCENTRATION MIC, Mouse Serum
Task for the reader: assign each of the following molecules its reported MIC.
One number for each entry, in µg/mL.

SMILES REPRESENTATION	MIC / µg/mL
Cc1cc(C)cc(C(=O)OCOC(=O)N(CC(=O)Nc2cc(N(C)C)c3c(c2O)C(=O)C2=C(O)[C@]4(O)C(=O)C(C(N)=O)=C(O)[C@@H](N(C)C)[C@@H]4C[C@@H]2C3)C(C)(C)C)c1	2

Would you mind listing MIC for each of the following molecules?
1. CCC(=O)OCOC(=O)N(CC(=O)Nc1cc(N(C)C)c2c(c1O)C(=O)C1=C(O)[C@]3(O)C(=O)C(C(N)=O)=C(O)[C@@H](N(C)C)[C@@H]3C[C@@H]1C2)C(C)(C)C
2. CN(C)c1cc(NC(=O)CN(C(=O)OCOC(=O)c2ccc(F)cc2)C(C)(C)C)c(O)c2c1C[C@H]1C[C@H]3[C@H](N(C)C)C(O)=C(C(N)=O)C(=O)[C@@]3(O)C(O)=C1C2=O

1: 0.25; 2: 0.5

====

System: S. aureus GC 1079
TEST METHOD NOTES: MIC, broth microdilution
STATED CONDITIONS: Staphylococcus aureus, GC1079, read-out: MINIMAL INHIBITORY CONCENTRATION MIC, Human Serum
OBSERVATION TYPE: MIC (µg/mL)
Give bare numbers, in µg/mL.

Solved cases (4 shown):
COMPOUND	NUMERIC VALUE
COC(=O)N(CC(=O)Nc1cc(N(C)C)c2c(c1O)C(=O)C1=C(O)[C@]3(O)C(=O)C(C(N)=O)=C(O)[C@@H](N(C)C)[C@@H]3C[C@@H]1C2)C(C)(C)C [Example 60]	2
CC(C)CC(=O)OCOC(=O)N(CC(=O)Nc1cc(N(C)C)c2c(c1O)C(=O)C1=C(O)[C@]3(O)C(=O)C(C(N)=O)=C(O)[C@@H](N(C)C)[C@@H]3C[C@@H]1C2)C(C)(C)C [Example 53]	0.5
CCC(=O)OCOC(=O)N(CC(=O)Nc1cc(N(C)C)c2c(c1O)C(=O)C1=C(O)[C@]3(O)C(=O)C(C(N)=O)=C(O)[C@@H](N(C)C)[C@@H]3C[C@@H]1C2)C(C)(C)C [Example 49]	0.5
CCCCOC(=O)N(CC(=O)Nc1cc(N(C)C)c2c(c1O)C(=O)C1=C(O)[C@]3(O)C(=O)C(C(N)=O)=C(O)[C@@H](N(C)C)[C@@H]3C[C@@H]1C2)C(C)(C)C [Example 58]	4

Continue with the next compound.
If you can, please state the reported MIC value of CN(C)c1cc(NC(=O)CN(C(=O)OCOC(=O)C2CCCCC2)C(C)(C)C)c(O)c2c1C[C@H]1C[C@H]3[C@H](N(C)C)C(O)=C(C(N)=O)C(=O)[C@@]3(O)C(O)=C1C2=O [Example 50] .
0.5

====

Task for the reader: assign each of the following compounds its reported MIC.
System: E. coli GC 2234
TEST METHOD NOTES: MIC, broth microdilution
STATED CONDITIONS: Escherichia coli, GC2234, read-out: MINIMAL INHIBITORY CONCENTRATION MIC, Mouse Serum
One number for each entry, in µg/mL.

Solved cases (3 shown):
COMPOUND	OBSERVATION TYPE	NUMERIC VALUE
CC(C)CC(=O)OCOC(=O)N(CC(=O)Nc1cc(N(C)C)c2c(c1O)C(=O)C1=C(O)[C@]3(O)C(=O)C(C(N)=O)=C(O)[C@@H](N(C)C)[C@@H]3C[C@@H]1C2)C(C)(C)C [Example 53]	MIC	0.5
CCC(=O)OCOC(=O)N(CC(=O)Nc1cc(N(C)C)c2c(c1O)C(=O)C1=C(O)[C@]3(O)C(=O)C(C(N)=O)=C(O)[C@@H](N(C)C)[C@@H]3C[C@@H]1C2)C(C)(C)C [Example 49]	MIC	0.25
CCCCCCC(=O)OCOC(=O)N(CC(=O)Nc1cc(N(C)C)c2c(c1O)C(=O)C1=C(O)[C@]3(O)C(=O)C(C(N)=O)=C(O)[C@@H](N(C)C)[C@@H]3C[C@@H]1C2)C(C)(C)C [Example 48]	MIC	0.5

If you can, please state the reported MIC value of CN(C)c1cc(NC(=O)CN(C(=O)OCOC(=O)c2ccc(F)cc2)C(C)(C)C)c(O)c2c1C[C@H]1C[C@H]3[C@H](N(C)C)C(O)=C(C(N)=O)C(=O)[C@@]3(O)C(O)=C1C2=O [Example 52] .
0.5

====

System: E. coli GC 2234
TEST METHOD NOTES: MIC, broth microdilution
STATED CONDITIONS: Escherichia coli, GC2234, E. coli GC 2234; Water pre-incubation
OBSERVATION TYPE: MIC (µg/mL)
Answers are plain numbers, in µg/mL.

COMPOUND	MIC [µg/mL]
CCCN(CC(=O)Nc1cc(N(C)C)c2c(c1O)C(=O)C1=C(O)[C@]3(O)C(=O)C(C(N)=O)=C(O)[C@@H](N(C)C)[C@@H]3C[C@@H]1C2)C(=O)OCOC(=O)C(C)C [Example 10]	8

Would you mind listing MIC for each of the following compounds?
1. CCCN(CC(=O)Nc1cc(N(C)C)c2c(c1O)C(=O)C1=C(O)[C@]3(O)C(=O)C(C(N)=O)=C(O)[C@@H](N(C)C)[C@@H]3C[C@@H]1C2)C(=O)OCOC(=O)c1ccc(C)cc1 [Example 5]
2. CCCN(CC(=O)Nc1cc(N(C)C)c2c(c1O)C(=O)C1=C(O)[C@]3(O)C(=O)C(C(N)=O)=C(O)[C@@H](N(C)C)[C@@H]3C[C@@H]1C2)C(=O)OCOC(=O)c1ccc(OC)cc1 [Example 6]

32
16

====

System: Staph.
TEST METHOD NOTES: Range of MIC for Staph. strains, including MRSA
STATED CONDITIONS: Staphylococcus aureus, MRSA, read-out: Range of MIC, Staph (Water)
OBSERVATION TYPE: MIC

Solved cases (3 shown):
SMILES REPRESENTATION	OBSERVATION TYPE	RESULT
CN(C)c1cc(NC(=O)CN(C(=O)OCOC(=O)c2ccccc2-c2ccccc2)C(C)(C)C)c(O)c2c1C[C@H]1C[C@H]3[C@H](N(C)C)C(O)=C(C(N)=O)C(=O)[C@@]3(O)C(O)=C1C2=O	MIC	> 64 µg/mL
CN(C)c1cc(NC(=O)CN(C(=O)OCOC(=O)c2ccncc2)C(C)(C)C)c(O)c2c1C[C@H]1C[C@H]3[C@H](N(C)C)C(O)=C(C(N)=O)C(=O)[C@@]3(O)C(O)=C1C2=O	MIC	1 to 4 µg/mL
Cc1cc(C)cc(C(=O)OCOC(=O)N(CC(=O)Nc2cc(N(C)C)c3c(c2O)C(=O)C2=C(O)[C@]4(O)C(=O)C(C(N)=O)=C(O)[C@@H](N(C)C)[C@@H]4C[C@@H]2C3)C(C)(C)C)c1	MIC	1 to 4 µg/mL

Find the measured MIC: item "CN(C)c1cc(NC(=O)CN(C(=O)OCOC(=O)c2ccccc2C(F)(F)F)C(C)(C)C)c(O)c2c1C[C@H]1C[C@H]3[C@H](N(C)C)C(O)=C(C(N)=O)C(=O)[C@@]3(O)C(O)=C1C2=O" , target or system Staph..
8 to 32 µg/mL

====

Task for the reader: assign each of the following compounds its reported MIC.
Test system: E. faecalis GC 2267
TEST METHOD NOTES: MIC, broth microdilution
STATED CONDITIONS: Enterococcus faecalis, GC2267, E. faecalis GC 2267; Water pre-incubation
Numbers only, in µg/mL.

Solved cases (6 shown):
COMPOUND	MIC (µg/mL)
CCCN(CC(=O)Nc1cc(N(C)C)c2c(c1O)C(=O)C1=C(O)[C@]3(O)C(=O)C(C(N)=O)=C(O)[C@@H](N(C)C)[C@@H]3C[C@@H]1C2)C(=O)OCC	8
CCCN(CC(=O)Nc1cc(N(C)C)c2c(c1O)C(=O)C1=C(O)[C@]3(O)C(=O)C(C(N)=O)=C(O)[C@@H](N(C)C)[C@@H]3C[C@@H]1C2)C(=O)OCOC(=O)c1ccc(OC)cc1	4
CCCN(CC(=O)Nc1cc(N(C)C)c2c(c1O)C(=O)C1=C(O)[C@]3(O)C(=O)C(C(N)=O)=C(O)[C@@H](N(C)C)[C@@H]3C[C@@H]1C2)C(=O)OCOC(=O)C(C)C	2
CCCN(CC(=O)Nc1cc(N(C)C)c2c(c1O)C(=O)C1=C(O)[C@]3(O)C(=O)C(C(N)=O)=C(O)[C@@H](N(C)C)[C@@H]3C[C@@H]1C2)C(=O)OCOC(=O)c1ccc(F)cc1	8
CCCCN(CC(=O)Nc1cc(N(C)C)c2c(c1O)C(=O)C1=C(O)[C@]3(O)C(=O)C(C(N)=O)=C(O)[C@@H](N(C)C)[C@@H]3C[C@@H]1C2)C(=O)OCOC(=O)C(C)(C)C	8
CCCCN(CC(=O)Nc1cc(N(C)C)c2c(c1O)C(=O)C1=C(O)[C@]3(O)C(=O)C(C(N)=O)=C(O)[C@@H](N(C)C)C3CC1C2)C(=O)OCOC(=O)C(C)C (stereo partly shown)	8

Continue with the next compound.
If you can, please state the reported MIC value of "CCCN(CC(=O)Nc1cc(N(C)C)c2c(c1O)C(=O)C1=C(O)[C@]3(O)C(=O)C(C(N)=O)=C(O)[C@@H](N(C)C)[C@@H]3C[C@@H]1C2)C(=O)OCOC(=O)Cc1ccccc1" .
2
